Molecular target: T1, recombinant human OX40L (extracellular domain, R&D Systems) (human, UniProt P23510 51-183)
T1 sequence: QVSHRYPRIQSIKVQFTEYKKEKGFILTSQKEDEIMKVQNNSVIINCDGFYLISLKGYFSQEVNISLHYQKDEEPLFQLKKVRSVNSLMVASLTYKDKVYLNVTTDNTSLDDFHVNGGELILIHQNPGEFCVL
Test: cell-based or functional assay
Known IC50, T cell assay with rec. hOX40L of a selection of binders
Just the number plus its unit, please.

Recorded IC50, T cell assay with rec. hOX40L, per entry:
[[record]]
binder = "OX40L040 (VHH, not shown: small tags and cut ends) VHH: DVQLVESGGGLVQPGGSLRLSCAASRSIGRLDRMGWYRHRTGEPRELVATITGGSSINYGDFVKGRFTISRDNSKNTVYLQMNSLRPEDTAVYYCNFNKYVTSRDTWGQGTLVTVSS"
recorded_measurement = "9 nM"

[[record]]
binder = "OX40L047 (VHH, not shown: small tags and cut ends) VHH: DVQLVESGGGLVQPGGSLRLSCAASRSIGRLDRMGWYRHAPGKPRELVATITGGSSINYGDFVKGRFTISRDNSKNTVYLQMNSLRPEDTAVYYCNFNKYVTSRDTWGQGTLVTVSS"
recorded_measurement = "126 nM"

[[record]]
binder = "OX40L045 (VHH, not shown: small tags and cut ends) VHH: DVQLVESGGGLVQPGGSLRLSCAASRSIGRLDRMGWYRHATGKPRELVATITGGSSINYGDFVKGRFTISRDNSKNTVYLQMNSLRPEDTAVYYCNFNKYVTSRDTWGQGTLVTVSS"
recorded_measurement = "133 nM"


Look up IC50, T cell assay with rec. hOX40L for this binder: OX40L15B07 (VHH, monovalent Nanobody from E. coli; not shown: C-terminal c-myc and His6 tag) VHH: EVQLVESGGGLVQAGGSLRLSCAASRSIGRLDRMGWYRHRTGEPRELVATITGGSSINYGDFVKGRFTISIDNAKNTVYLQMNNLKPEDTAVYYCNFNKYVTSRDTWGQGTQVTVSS 10 nM

Look up IC50, T cell assay with rec. hOX40L for this binder: OX40L050 (VHH, not shown: small tags and cut ends) VHH: DVQLVESGGGLVQPGGSLRLSCAASRSIGRLDRMGWYRHRTGEPRELVATITGGSSINYADSVKGRFTISRDNSKNTVYLQMNSLRPEDTAVYYCNFNKYVTSRDTWGQGTLVTVSS 43 nM

Look up IC50, T cell assay with rec. hOX40L for this binder: OX40L042 (VHH, not shown: small tags and cut ends) VHH: DVQLVESGGGLVQPGGSLRLSCAASRSIGRLDRMGWYRHRPGEPRELVATITGGSSINYGDFVKGRFTISRDNSKNTVYLQMNSLRPEDTAVYYCNFNKYVTSRDTWGQGTLVTVSS 18 nM

Look up IC50, T cell assay with rec. hOX40L for this binder: OX40L044 (VHH, not shown: small tags and cut ends) VHH: DVQLVESGGGLVQPGGSLRLSCAASRSIGRLDRMGWYRHAPGEPRELVATITGGSSINYGDFVKGRFTISRDNSKNTVYLQMNSLRPEDTAVYYCNFNKYVTSRDTWGQGTLVTVSS 76 nM

Look up IC50, T cell assay with rec. hOX40L for this binder: OX40L043 (VHH, not shown: small tags and cut ends) VHH: DVQLVESGGGLVQPGGSLRLSCAASRSIGRLDRMGWYRHRTGKPRELVATITGGSSINYGDFVKGRFTISRDNSKNTVYLQMNSLRPEDTAVYYCNFNKYVTSRDTWGQGTLVTVSS 29 nM
